Observed IC50 values for Bax (Homo sapiens, UniProt Q07812) are listed in what follows.

{"columns": ["smiles.representation", "experimental.result"],
 "data": [
  ["NCCCN(Cc1ccc(Br)cc1)C(=O)[C@H](Cc1ccccc1)NC(=O)c1ccccc1", "~700 nM"]
]}

Now look at this entry.
### Prompt Write IC50 of COCCOCOc1ccc2c(c1)O[C@H](CN)[C@H]2N(Cc1ccc(Br)cc1)C(=O)[C@H](Cc1ccccc1)NC(=O)c1ccccc1 ; system used: Bax (Homo sapiens, UniProt Q07812)
Sequence (Q07812 whole entry): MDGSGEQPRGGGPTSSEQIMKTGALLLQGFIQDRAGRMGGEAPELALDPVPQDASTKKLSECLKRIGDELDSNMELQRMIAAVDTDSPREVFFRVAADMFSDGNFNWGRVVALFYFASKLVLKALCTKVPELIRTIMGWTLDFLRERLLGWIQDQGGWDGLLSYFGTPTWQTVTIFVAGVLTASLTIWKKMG
### Response ~4000 nM
